These measurements were taken from patent US6441177B1.

target: human liver microsomal 2,3-oxidosqualene-lanosterol cyclase (OSC) (Homo sapiens, UniProt P48449); construct: Liver microsomes from a healthy volunteer were prepared in sodium phosphate buffer (pH 7.4); from tissue; host or cells: human liver microsomes from a healthy volunteer; test: Inhibition of human liver microsomal 2,3-oxidosqualene-lanosterol cyclase (OSC); format: biochemical; conditions: constant test substance concentration of 100 nM; human liver microsomes, 1 hour at 37° C.; against controls
Sequence (P48449 whole entry): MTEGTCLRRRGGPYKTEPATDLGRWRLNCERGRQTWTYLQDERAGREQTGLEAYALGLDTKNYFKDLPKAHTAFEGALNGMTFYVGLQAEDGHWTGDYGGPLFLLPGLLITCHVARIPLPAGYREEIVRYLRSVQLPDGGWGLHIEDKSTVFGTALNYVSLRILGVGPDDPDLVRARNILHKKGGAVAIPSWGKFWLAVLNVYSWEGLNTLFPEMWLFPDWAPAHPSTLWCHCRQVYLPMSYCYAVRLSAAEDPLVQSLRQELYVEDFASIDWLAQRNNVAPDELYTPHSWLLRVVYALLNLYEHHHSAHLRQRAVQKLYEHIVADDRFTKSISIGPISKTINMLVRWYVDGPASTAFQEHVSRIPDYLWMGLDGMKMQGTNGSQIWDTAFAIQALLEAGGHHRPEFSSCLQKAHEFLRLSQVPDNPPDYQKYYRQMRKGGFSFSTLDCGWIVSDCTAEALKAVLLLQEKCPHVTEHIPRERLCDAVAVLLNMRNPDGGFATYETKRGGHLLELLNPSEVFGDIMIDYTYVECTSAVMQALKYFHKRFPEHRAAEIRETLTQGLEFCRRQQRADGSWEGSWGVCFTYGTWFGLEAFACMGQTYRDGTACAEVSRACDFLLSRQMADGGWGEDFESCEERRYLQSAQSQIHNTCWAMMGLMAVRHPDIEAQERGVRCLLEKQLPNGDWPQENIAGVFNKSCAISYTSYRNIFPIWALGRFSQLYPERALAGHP
readout.name: inhibition at 0.1 µM

Please review the entries below; each comes with its answer.
C=CCN(C)C/C=C/COc1ccc(C(C)(O)CCC=C(C)C)cc1 (racemic) [Example 39a] :: 87%
CN(C[C@@H]1C[C@H]1COc1ccc(C(=O)c2ccc(Br)cc2)cc1)C1CC1 (racemic) :: 85%
C=CCN(C)C/C=C/CNc1ccc(C(=O)c2ccc(Br)cc2)cc1F :: 91%

Give one value of inhibition at 0.1 µM per listed compound.
1. CN(C/C=C/COc1ccc(C(=O)c2ccc(Br)cc2)cc1)C1CC1
2. C=CCN(C)CCCCCCOc1ccc(C(=O)c2ccc(Br)cc2)c(N(C)C)c1 [Example 34a]

1: 84%; 2: 98%
